assayed_system: recombinant NRP2 isoform a (human) (UniProt O60462)
assay: BLI, antibody captured by anti-mouse kappa, NRP2a titrated 0.62-450 nM, 1:1 fit
Answer each item with its documented Kd.
Answer shape: numeric part, then the unit.

aNRP2-408v2 (antibody, V domains shown) VH: EVKLVESGGGLVKPGGSLKLSCAASGFTFSSYAMSWVRQTPEKRLEWVASISRGSITYYPDSVKGRFTISRDNAGNILYLQMSSLRSEDTAMYYCAREYYYAMDYWGQGTSVTVSS VL: DIQMTQSPSSLSASLGERVSLTCRASQDIGSRLNWLQQEPDGTIKRLIYATSSLDSGVPKRFSGSRSGSDYSLTISSLESEDFVDYYCLQYASSPYTFGGGTKLEIK | 2.1 nM
aNRP2-37v2 (antibody, V domains shown) VH: DVKLVESGEGLVKPGGSLKLSCAASGFTFSDYALSWVRQTPEKRLEWVAYISSGGDYIYYADTVRGRFTISRDNARNTLYLQMSSLQSEDTAIYYCTRGGQDDYWGQGTTLTVSS VL: DVVMTQTPLSLPVILGDQASISCRSSQSLVHSNGNTYLQWYLQKPGQSPKLLIYKVSNRFSGVPDRFSGSGSGTDFTLKISRVEAEDLGVYFCSQSTHVPFTFGSGTNLEIK | 0.767 nM
aNRP2-409v3 (antibody, V domains shown) VH: EVQFVETGGGLVQPKGSLKLSCAASGFTFNTNAMNWVRQAPGKGLEWVARIRTKSNNYATYYADSVKDRFTISRDDSQNILYLQMNNLKTEDTAMYYCVTLDSSGYVWFAYWGQGTLVTVSA VL: DIQMTQSPSSLSASLGERVSLTCRASQDIGSRLNWLQQEPDGTIKRLIYATSSLDSGVPKRFSGSRSGSDYSLTISSLESEDFVDYYCLQYASSPYTFGGGTKLEIK | 2.23 nM

// each listed binder needs a value for Kd
1. aNRP2-405v2 (antibody, V domains shown) VH: EVMLVESGGGLVKPGGSLKLSCAASGFTFRRYAMSWVRQTPEKGLEWVATITSGGSYTYYLDSVKGRITISRDNAKNTLYLQMSSLRSEDTAMYYCARHGIYGGFDYWGQGTTLTVSS VL: DVLMTQTPLSLPVSLGDQASISCRSSQSIVHSDGNTYLEWYLQKPGQSPNLLIYKVSNRFSGVPDRFSGSGSGTDFTLKISRVEAEDLGIYYCFQGSHVPFTFGSGTKLEIK
2. aNRP2-403v2 (antibody, V domains shown) VH: QVQLQQPGAELVKPGASVKLSCKASGYTFTSYWMHWVKQRPGRGLEWIGRIDPNSGDTKYNEKFKSKATLTVDKPSSTAYMQVSSLTSEDSAVYYCARSYDYALEYWGQGTSVTVSS VL: DVVMTQTPLSLPVSLGDQASISCRSSQSLVHSNGNTYLHWFLQKPGQSPNLLIYKVSNRFSGVPDRFSGSGSGTDFTLKISRVEAEDLGVYFCSQNTRVPRTFGGGTKLEIK
3. aNRP2-401v2 (antibody, V domains shown) VH: EVQLQESGGGLVKPGGSLKLSCAASGFTFSDYGMHWVRQAPEKGLEWVATISRDINTVYYADTVKGRFTISRDNAKNTLFLQVTSLRSEDTAMYYCTRGGYTDYWGQGTTLTVSS VL: DIVMTQTPLSLPVSLGDQASISCRSSQSLVHSNGNTYLYWYLQRPGQSPKLLIYKVSNRFSGVPDRFSGSGSGTDFTLKISRVEAEDLGVYFCSQSTHVLTFGGGTKLEIK
4. aNRP2-407v2 (antibody, V domains shown) VH: EVQLQQSGPELVKPGASVTISCKASGYSFTGYYMHWVKQSHVKSLEWIGRINPYNGATSYSQNFKDKASLTIDKSSSTAYMELHSLTSEDSAVYYCAREETTAPFTYWGQGTLVTVSA VL: DIVMSQSPSSLAVSVGEKVTMSCKSSQSLLYSSNQKNYLAWYQQKPGQSPKLLIYWASTRESGVPDRFTGSGSGTDFTLTISSVQAEDLAVYFCQHYYSYPPTFGGGTKLEIK
5. aNRP2-400v2 (antibody, V domains shown) VH: EVQLQESGAELARPGASVKLSCKASGYTFRSYGISWVKQRTGQGLEWIGEIYPRSGNTYYDENFKGRATLTADKSSSTAFMELRSLTSEDSAVYFCARSSITAVVAIPYYYAMDYWGQGTSVTVSS VL: DIQMTQTTSSLSASLGDRVTISCSASQGISNYLNWYQQKPDGSVKLLIYYTSSLHSGVPSRFSGSGSGTDYSLTISNLEPEDIATYYCQQYSKLPHTFGGGTKLELK

1. 0.48 nM
2. 1.4 nM
3. 0.136 nM
4. 0.352 nM
5. 0.453 nM
